Value source: paper PMC11876671

Parameter: PAMPA-BBB Pe. Scope: all listed entries.
details: Table 1; 60 min, room temperature, 0.05 mM
quantity: PAMPA-BBB Pe

* C/C=C(\C)C(=O)N[C@@H](c1ccccc1)[C@@H](O)C(=O)O[C@H]1C[C@@]2(O)[C@@H](OC(=O)c3ccccc3)[C@@H]3[C@]4(OC(C)=O)CO[C@@H]4C[C@H](O)[C@@]3(C)C(=O)[C@H](OC(C)=O)C(=C1C)C2(C)C [Cephalomannine] | 78.57 10 × 10^− 6 cm/sec
* C/C(=C\c1csc(C)n1)[C@@H]1C[C@@H]2O[C@]2(C)CCC[C@H](C)[C@H](O)[C@@H](C)C(=O)C(C)(C)[C@@H](O)CC(=O)O1 [Patupilone] | 10.52 10 × 10^− 6 cm/sec
* O=c1oc2c(O)c(O)cc3c(=O)oc4c(O)c(O)cc1c4c23 [Ellagic acid] | 119.5 10 × 10^− 6 cm/sec
* CCC(=O)CCCCC[C@@H]1NC(=O)[C@H]2CCCCN2C(=O)[C@H]([C@@H](C)CC)NC(=O)[C@H](Cc2cn(OC)c3ccccc23)NC1=O [Apicidin] | 55.75 10 × 10^− 6 cm/sec
* CC1=C(O)C(=O)C=C2C1=CC=C1[C@@]2(C)CC[C@@]2(C)[C@@H]3C[C@](C)(C(=O)O)CC[C@]3(C)CC[C@]12C [Celastrol] | 142.58 10 × 10^− 6 cm/sec
* Cc1c2ccncc2c(C)c2c1[nH]c1ccccc12 [Ellipticine] | > 1000 10 × 10^− 6 cm/sec
* O=c1cc(N2CCOCC2)oc2c(-c3cccc4c3sc3ccccc34)cccc12 [NU-7441, reference compound] | 101.9 10 × 10^− 6 cm/sec
* O=c1c(O)c(-c2ccccc2)oc2ccccc12 [3-Hydroxyflavone] | 181.17 10 × 10^− 6 cm/sec
* COc1cc(/C=C/C(=O)N2CCC=CC2=O)cc(OC)c1OC [Piperlongumine] | 90.26 10 × 10^− 6 cm/sec
* COc1cc(-c2cc(=O)c3c(O)cc(O)cc3o2)ccc1O [Chrysoeriol] | 178.56 10 × 10^− 6 cm/sec
* COc1ccc2c(c[n+](C)c3c4cc5c(cc4ccc23)OCO5)c1OC [Chelerythrine chloride] | 94.67 10 × 10^− 6 cm/sec
* CC(/C=C/C(=O)NO)=C\[C@@H](C)C(=O)c1ccc(N(C)C)cc1 [Trichostatin A] | 54.74 10 × 10^− 6 cm/sec

====

Parameter: PAMPA-BBB Pe. Scope: all listed entries.
conditions: PAMPA
Counter-ions that a name gives are not always drawn.
quantity: PAMPA-BBB Pe

• COc1cc(C)ccc1O = 115 10^-6 cm/sec
• COc1ccc2c(c1OC)C(=O)O[C@@H]2[C@H]1c2c(cc3c(c2OC)OCO3)CCN1C [NOSCAPINE HYDROCHLORIDE] = 75 10^-6 cm/sec
• CC[C@]1(O)C[C@H]2CN(CCc3c([nH]c4ccccc34)[C@@](C(=O)OC)(c3cc4c(cc3OC)N(C=O)[C@H]3[C@@](O)(C(=O)OC)[C@H](OC(C)=O)[C@]5(CC)C=CCN6CC[C@]43[C@@H]65)C2)C1 [Vincristine, reference compound] = 21.19 10^-6 cm/sec
• COc1cc2c(c3oc4cccc(O)c4c(=O)c13)[C@@H]1C=CO[C@@H]1O2 = 221 10 × 10^− 6 cm/sec
• COc1ccc2c(c1OC)C(=O)O[C@@H]2[C@H]1c2c(cc3c(c2OC)OCO3)CCN1C [Noscapine, reference compound] = 74.54 10 × 10^− 6 cm/sec
• Cc1nccc2c1[nH]c1ccccc12 [HARMAN] = 60 10^-6 cm/sec
